Parameter: IC50. Scope: all listed entries.
TARGET_UNDER_TEST: HLA-A*0301 (human)
METHOD: competition with 125I probe peptide, purified HLA
CONDITIONS_USED: remark: other sources report otherwise

BINDER	IC50, nM
YFFPVIFSK [MAGE3.138 9-mer …]	5000
LLGDNQIMPK [MAGE1/3.189 10-mer …]	500
SVFSTTINK [MAGE2.69.V2K9 …]	20

Numbers sourced from patent US20040053822A1.
